Each item that follows carries a reported Solubility in water.
# Experiment notes: Comparative test of solubility in water of different forms of rifaximin (spectrophotometric, absorbance at 450.50 nm)
# Assay type: physicochemical
# Test context: time 120 min; suspension in deionized water, constant stirring, 25° C.
Measured property: Solubility in water (g/L)

INSERT INTO results (compound, measured_property, observed_measurement) VALUES
  ('CO[C@H]1/C=C/O[C@@]2(C)Oc3c(C)c(O)c4c(O)c(c5c(nc6cc(C)ccn65)c4c3C2=O)NC(=O)/C(C)=C\C=C\[C@H](C)[C@H](O)[C@@H](C)[C@@H](O)[C@@H](C)[C@H](OC(C)=O)[C@@H]1C [example 5, rifaximin]', 'Solubility in water', 0.044),
  ('CO[C@H]1/C=C/O[C@@]2(C)Oc3c(C)c(O)c4c(O)c(c5c(nc6cc(C)ccn65)c4c3C2=O)NC(=O)/C(C)=C\C=C\[C@H](C)[C@H](O)[C@@H](C)[C@@H](O)[C@@H](C)[C@H](OC(C)=O)[C@@H]1C [example 1, rifaximin]', 'Solubility in water', 0.046),
  ('CO[C@H]1/C=C/O[C@@]2(C)Oc3c(C)c(O)c4c(O)c(c5c(nc6cc(C)ccn65)c4c3C2=O)NC(=O)/C(C)=C\C=C\[C@H](C)[C@H](O)[C@@H](C)[C@@H](O)[C@@H](C)[C@H](OC(C)=O)[C@@H]1C [form γ, rifaximin]', 'Solubility in water', 0.043),
  ('CO[C@H]1/C=C/O[C@@]2(C)Oc3c(C)c(O)c4c(O)c(c5c(nc6cc(C)ccn65)c4c3C2=O)NC(=O)/C(C)=C\C=C\[C@H](C)[C@H](O)[C@@H](C)[C@@H](O)[C@@H](C)[C@H](OC(C)=O)[C@@H]1C [example 13, rifaximin]', 'Solubility in water', 0.086);
